Listing of recorded IC50 by entry.
- tested.system: human ASK1 (Homo sapiens)
- Construct: a 2.2 kb DNA fragment containing an ASK1 gene was recovered from the gel
- experiment: Scintillation assay measuring inhibition of ASK1 phosphorylation of myelin basic protein
- experimental.conditions: active ASK1 protein 30 ng, myelin basic protein 1 μg, [γ-32P]ATP, room temperature 30 min; values given as ranges; read-out: Enzyme Activity IC50

Examples from the recorded data:
CC(C)(C)c1ccc(C(=O)Nc2cc(N3CCCC(O)C3)n3nccc3n2)cc1 (centres unmarked) ... < 100 nM
CC(C)(C)c1ccc(C(=O)Nc2cc(N3CCCCC3CCO)n3nccc3n2)cc1 (centres unmarked) ... < 100 nM
CC(C)(O)c1ccc(C(=O)Nc2cc(N3CCC[C@@H](C(=O)O)C3)n3nccc3n2)cc1 ... 100 to 1000 nM

## Input Recorded IC50 for `CC(C)(O)c1ccc(C(=O)Nc2cc(-c3ccccc3)n3nccc3n2)cc1` with human ASK1 (Homo sapiens), please?
## Output < 100 nM

## Input Under human ASK1 (Homo sapiens): IC50 value of `Cc1ccc(-c2cc(N)nc3ccnn23)cc1` ?
## Output > 1000 nM

## Input Fill in the recorded IC50 for this compound, with human ASK1 (Homo sapiens) as test system: Cc1cc2nc(NC(=O)[C@@H]3C[C@H]3c3ccc(F)cc3)cc(-c3ccccc3)n2n1 (racemic)
## Output < 100 nM

---

- tested.system: human ASK1 (Homo sapiens, UniProt Q99683)
- Construct: a 2.2 kb DNA fragment containing an ASK1 gene was recovered from the gel
- Sequence (Q99683 649-1374 limits assumed): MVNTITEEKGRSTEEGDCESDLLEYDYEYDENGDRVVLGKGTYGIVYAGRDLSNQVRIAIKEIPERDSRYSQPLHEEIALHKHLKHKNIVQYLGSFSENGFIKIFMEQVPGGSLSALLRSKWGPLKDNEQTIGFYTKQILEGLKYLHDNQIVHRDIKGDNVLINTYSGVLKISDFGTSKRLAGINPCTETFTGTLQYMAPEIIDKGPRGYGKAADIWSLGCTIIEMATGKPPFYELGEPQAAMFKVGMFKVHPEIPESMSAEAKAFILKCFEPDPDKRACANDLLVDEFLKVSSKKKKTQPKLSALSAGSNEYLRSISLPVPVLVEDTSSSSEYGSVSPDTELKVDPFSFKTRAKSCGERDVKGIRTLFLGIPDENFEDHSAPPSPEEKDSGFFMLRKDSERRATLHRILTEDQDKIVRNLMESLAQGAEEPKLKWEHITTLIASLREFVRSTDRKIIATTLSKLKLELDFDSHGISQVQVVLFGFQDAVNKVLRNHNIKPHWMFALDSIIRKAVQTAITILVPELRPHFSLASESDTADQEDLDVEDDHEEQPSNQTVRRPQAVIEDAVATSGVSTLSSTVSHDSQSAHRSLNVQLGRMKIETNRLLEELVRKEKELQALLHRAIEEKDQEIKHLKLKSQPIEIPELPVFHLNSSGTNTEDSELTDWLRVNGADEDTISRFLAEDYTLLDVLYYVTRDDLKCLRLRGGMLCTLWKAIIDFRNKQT
- experiment: Scintillation assay measuring inhibition of ASK1 phosphorylation of myelin basic protein
- experimental.conditions: active ASK1 protein 30 ng, myelin basic protein 1 μg, [γ-32P]ATP, room temperature 30 min; values given as ranges; read-out: Enzyme Activity IC50
pIC50: −log10 of the molar value. Where a name gives a salt, the structure may show the parent alone.
Reported pIC50 by item:

# annotated cases, reported pIC50 shown
CC(C)(O)c1ccc(C(=O)Nc2cc(N3CCC[C@@H]3CO)n3nccc3n2)cc1 ... 6.00 to 7.00
CC(C)(C)c1ccc(C(=O)Nc2cc(-c3cccc(CO)c3)n3nccc3n2)cc1 ... > 7.00
CC(C)(O)c1ccc(C(=O)Nc2cc(NC3CC3)n3nccc3n2)cc1 ... 6.00 to 7.00

## Input Which pIC50 reading was recorded for the compound `CC(C)(O)c1ccc(C(=O)Nc2cc(N3CCOCC3)n3nccc3n2)cc1` ?
## Output > 7.00

## Input For the compound `CC(C)(C)c1ccc(C(=O)Nc2cc(N3CCC[C@H](O)C3)n3nccc3n2)cc1` , what pIC50 is on record?
## Output 6.00 to 7.00

## Input Quick one: pIC50 for `Cc1cc2nc(NC(=O)c3ccc(C(C)(C)CO)cc3)cc(N3CC(O)C3)n2n1` ?
## Output 6.00 to 7.00

## Input Which pIC50 value belongs to `Cc1ccc(-c2cc(NC(=O)c3ccc(C(C)(C)O)cc3)nc3ccnn23)cc1` ?
## Output > 7.00

## Input Fill in: pIC50 of `Cc1cc2nc(NC(=O)c3ccc(C(C)(C)O)nc3)cc(-c3ccccc3)n2n1` is ___
## Output 6.00 to 7.00

## Input Request the reported pIC50 associated with COc1ccc(-c2cc(NC(=O)c3ccc(C(C)(C)O)nc3)nc3cc(C)nn23)cc1 [Compound 338, trifluoroacetate salt]
## Output > 7.00

## Input I have this compound here, `CC(C)(O)c1ccc(C(=O)Nc2cc(N3CCNC(=O)CC3)n3nccc3n2)cc1` , and I need its recorded pIC50.
## Output 6.00 to 7.00

## Input Which value of pIC50 has been reported for CC(=O)NC1CCN(c2cc(NC(=O)[C@@H]3C[C@H]3c3ccc(F)cc3)nc3cc(C)nn23)CC1 (racemic) in the records?
## Output > 7.00
